target: human recombinant serotonin (5-Hydroxytryptamine) 5-HT6 receptor (Homo sapiens, UniProt P50406); construct: expressed in transfected cells; host or cells: HeLa; experiment: Serotonin 5-HT6 radioligand binding ([3H]LSD); details: compound at 0.1 μM; read-out: Inhibition of ligand binding, Serotonin 5-HT6 (percent inhibition of specific binding)
Sequence (P50406 whole entry): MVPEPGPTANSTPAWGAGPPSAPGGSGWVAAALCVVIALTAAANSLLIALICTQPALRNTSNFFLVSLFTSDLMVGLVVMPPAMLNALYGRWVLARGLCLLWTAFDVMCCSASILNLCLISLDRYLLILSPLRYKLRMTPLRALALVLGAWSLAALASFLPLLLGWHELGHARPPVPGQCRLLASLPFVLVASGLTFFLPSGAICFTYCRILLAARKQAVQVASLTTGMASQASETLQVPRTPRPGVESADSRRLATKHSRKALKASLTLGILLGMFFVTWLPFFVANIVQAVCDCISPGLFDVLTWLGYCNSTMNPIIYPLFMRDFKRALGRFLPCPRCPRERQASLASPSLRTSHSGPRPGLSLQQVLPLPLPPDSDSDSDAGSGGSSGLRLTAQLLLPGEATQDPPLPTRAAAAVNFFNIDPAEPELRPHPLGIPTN
// FALSE strictly below 20% in inhibition at 0.1 µM; TRUE otherwise

Hi team, for Cc1ccc2c(c1)c1c(n2-c2cccc(-c3ccc(S(C)(=O)=O)cc3)c2)CCN(C)C1 , is the recorded inhibition at 0.1 µM at or above 20%?
FALSE

Please indicate if the recorded inhibition at 0.1 µM for Cc1ccc2c(c1)c1c(n2-c2ccc3ccncc3c2)CCN(C)C1 meets or exceeds 20%.
FALSE

Could you please find out whether Cc1ccc2c(c1)c1c(n2-c2cscc2-c2ccc3cnccc3c2)CCN(C)C1 has inhibition at 0.1 µM that meets 20% or exceeds it?
FALSE

State whether the measured inhibition at 0.1 µM reaches 20%, counting equality as reaching it, for Cc1ccc2c(c1)c1c(n2-c2ccccc2-c2sccc2C)CCN(C)C1
TRUE

Confirm if inhibition at 0.1 µM reported for the molecule Cc1cc(C)c2c(c1)c1c(n2-c2cccc3ncccc23)CCN(C)C1 is 20% or above.
FALSE

Hello, I need to know if Cc1ccc2c(c1)c1c(n2-c2ccc3cnccc3c2)CCN(C)C1 has measured inhibition at 0.1 µM not below 20%. Thanks!
TRUE

Identify whether the reported inhibition at 0.1 µM of the following molecule is 20% or greater: Cc1ccc2c(c1)c1c(n2-c2ccc(C(F)(F)F)nc2)CCN(C)C1
FALSE

Given the entry Cc1ccc2c(c1)c1c(n2-c2cscc2-c2c(C)noc2C)CCN(C)C1 , answer whether its inhibition at 0.1 µM meets or surpasses 20%.
TRUE
